Hey, just so you know, these numbers are from ChEMBL document CHEMBL4725309.

Target: Tyrosine-protein kinase Tec (Homo sapiens, UniProt P42680)
Sequence (P42680 whole entry): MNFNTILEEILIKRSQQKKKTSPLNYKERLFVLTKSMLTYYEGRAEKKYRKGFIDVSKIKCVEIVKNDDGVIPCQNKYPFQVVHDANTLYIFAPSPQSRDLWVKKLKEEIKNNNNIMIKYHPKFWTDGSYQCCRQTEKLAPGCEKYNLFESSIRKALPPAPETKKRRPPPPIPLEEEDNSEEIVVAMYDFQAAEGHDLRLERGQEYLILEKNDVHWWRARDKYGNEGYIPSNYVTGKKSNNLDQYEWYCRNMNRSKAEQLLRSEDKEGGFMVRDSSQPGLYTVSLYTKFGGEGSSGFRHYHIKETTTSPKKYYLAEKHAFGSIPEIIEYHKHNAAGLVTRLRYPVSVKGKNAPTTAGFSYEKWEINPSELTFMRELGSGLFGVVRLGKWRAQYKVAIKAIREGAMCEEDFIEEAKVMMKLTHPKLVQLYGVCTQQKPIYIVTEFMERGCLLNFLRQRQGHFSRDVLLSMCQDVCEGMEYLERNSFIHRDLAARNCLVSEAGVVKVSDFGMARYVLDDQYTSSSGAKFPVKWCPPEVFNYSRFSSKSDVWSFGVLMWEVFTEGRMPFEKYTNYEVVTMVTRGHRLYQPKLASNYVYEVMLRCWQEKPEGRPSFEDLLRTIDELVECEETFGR
Entries and their IC50 values follow.

Compound Structure | IC50, nM
COc1cc(C(=O)Nc2cc(C(F)(F)F)ccn2)ccc1-c1nc([C@@H]2CC[C@H]3CCC(=O)N3C2)n2ccnc(N)c12 | 67
Nc1nccn2c([C@@H]3CC[C@H]4COC(=O)N4C3)nc(-c3ccc(C(=O)Nc4cc(C(F)(F)F)ccn4)cc3)c12 | 92

----------
Test: Oral bioavailability in Wistar Han rat at 5 mg/kg
Type: ADME, organism-based
Conditions: Wistar Han, in vivo

Compound Structure | bioavailability, %
Nc1nccn2c([C@@H]3CC[C@H]4CCC(=O)N4C3)nc(-c3ccc(C(=O)Nc4cc(C(F)(F)F)ccn4)cc3)c12 | 46
Nc1nccn2c([C@@H]3CC[C@H]4COC(=O)N4C3)nc(-c3ccc(C(=O)Nc4cc(C(F)(F)F)ccn4)cc3)c12 | 3.6
Nc1nccn2c([C@@H]3CC[C@H]4CCC(=O)N4C3)nc(-c3ccc(C(=O)Nc4cc(C(F)(F)F)ccn4)cc3OC3CC3)c12 | 14
COc1cc(C(=O)Nc2cc(C(F)(F)F)ccn2)ccc1-c1nc([C@@H]2CC[C@H]3CCC(=O)N3C2)n2ccnc(N)c12 | 9.5

----------
Target: Tyrosine-protein kinase BTK (Homo sapiens, UniProt Q06187)
Sequence (Q06187 whole entry): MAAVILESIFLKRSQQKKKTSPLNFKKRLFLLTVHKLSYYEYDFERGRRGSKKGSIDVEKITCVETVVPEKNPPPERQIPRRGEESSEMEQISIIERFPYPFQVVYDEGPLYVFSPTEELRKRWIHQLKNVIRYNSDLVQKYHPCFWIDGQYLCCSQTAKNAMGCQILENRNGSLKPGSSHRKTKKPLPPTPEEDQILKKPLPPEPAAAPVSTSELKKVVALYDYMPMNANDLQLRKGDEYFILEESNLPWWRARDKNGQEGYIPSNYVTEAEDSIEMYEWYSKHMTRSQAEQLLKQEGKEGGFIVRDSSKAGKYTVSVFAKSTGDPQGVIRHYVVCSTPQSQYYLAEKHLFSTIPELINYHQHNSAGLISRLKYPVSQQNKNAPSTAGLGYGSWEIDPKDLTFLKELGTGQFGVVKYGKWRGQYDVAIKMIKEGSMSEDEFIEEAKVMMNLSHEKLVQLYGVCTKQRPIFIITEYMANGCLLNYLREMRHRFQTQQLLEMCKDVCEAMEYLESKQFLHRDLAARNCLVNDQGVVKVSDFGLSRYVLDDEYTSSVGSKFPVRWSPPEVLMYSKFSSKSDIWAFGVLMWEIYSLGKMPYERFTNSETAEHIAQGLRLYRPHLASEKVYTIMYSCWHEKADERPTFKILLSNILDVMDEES
Assay: Inhibition of BTK in human PBMC assessed as reduction in cell surface CD69 expression preincubated for 1 hr followed by stimulation with goat anti-human IgM F(ab')2 for 18 hrs by immunostaining analysis
Type: tissue-based
Readout Type: IC50 (nM)

Compound Structure | Tgt | Unit Text | Relation Symbol | Value
CCOc1cc(C(=O)Nc2cc(C(F)(F)F)ccn2)ccc1-c1nc([C@@H]2CC[C@H]3CCC(=O)N3C2)n2ccnc(N)c12 | Tyrosine-protein kinase BTK (Homo sapiens, UniProt Q06187) | nM | = | 10
Nc1nccn2c([C@@H]3CC[C@H]4CCC(=O)N4C3)nc(-c3ccc(C(=O)Nc4cc(C(F)(F)F)ccn4)cc3F)c12 | Tyrosine-protein kinase BTK (Homo sapiens, UniProt Q06187) | nM | = | 4
NC(=O)c1cc(C(=O)Nc2cc(C(F)(F)F)ccn2)ccc1-c1nc([C@@H]2CC[C@H]3CCC(=O)N3C2)n2ccnc(N)c12 | Tyrosine-protein kinase BTK (Homo sapiens, UniProt Q06187) | nM | > | 3000
CC1(C)OC(=O)N2C[C@H](c3nc(-c4ccc(C(=O)Nc5cc(C(F)(F)F)ccn5)cc4)c4c(N)nccn34)CC[C@H]21 | Tyrosine-protein kinase BTK (Homo sapiens, UniProt Q06187) | nM | = | 2.8
Nc1nccn2c([C@H]3CN4C(=O)OC[C@@H]4CO3)nc(-c3ccc(C(=O)Nc4cc(C(F)(F)F)ccn4)cc3)c12 | Tyrosine-protein kinase BTK (Homo sapiens, UniProt Q06187) | nM | = | 582
Nc1nccn2c([C@@H]3CC[C@H]4CCC(=O)N4C3)nc(-c3ccc(C(=O)Nc4cc(C(F)(F)F)ccn4)cc3O)c12 | Tyrosine-protein kinase BTK (Homo sapiens, UniProt Q06187) | nM | = | 11
Nc1nccn2c([C@@H]3CC[C@H]4CCC(=O)N4C3)nc(-c3ccc(C(=O)Nc4cc(C(F)(F)F)ccn4)cc3C(F)(F)F)c12 | Tyrosine-protein kinase BTK (Homo sapiens, UniProt Q06187) | nM | > | 3000
Nc1nccn2c([C@@H]3CC[C@H]4CCC(=O)N4C3)nc(-c3ccc(C(=O)Nc4cc(C(F)(F)F)ccn4)cc3C(=O)O)c12 | Tyrosine-protein kinase BTK (Homo sapiens, UniProt Q06187) | nM | = | 1410
Nc1nccn2c([C@@H]3CC[C@H]4CCC(=O)N4C3)nc(-c3ccc(C(=O)Nc4cc(C(F)(F)F)ccn4)cc3Oc3ccccc3)c12 | Tyrosine-protein kinase BTK (Homo sapiens, UniProt Q06187) | nM | = | 310
Nc1nccn2c([C@@H]3CC[C@H]4CCC(=O)N4C3)nc(-c3ccc(C(=O)Nc4cc(C(F)(F)F)ccn4)cc3OC(F)(F)F)c12 | Tyrosine-protein kinase BTK (Homo sapiens, UniProt Q06187) | nM | = | 74
C[C@H]1OC(=O)N2C[C@H](c3nc(-c4ccc(C(=O)Nc5cc(C(F)(F)F)ccn5)cc4)c4c(N)nccn34)CC[C@@H]12 | Tyrosine-protein kinase BTK (Homo sapiens, UniProt Q06187) | nM | = | 3.2
N#Cc1cc(C(=O)Nc2cc(C(F)(F)F)ccn2)ccc1-c1nc([C@@H]2CC[C@H]3CCC(=O)N3C2)n2ccnc(N)c12 | Tyrosine-protein kinase BTK (Homo sapiens, UniProt Q06187) | nM | = | 267
Nc1nccn2c([C@@H]3CC[C@H]4CCCN4C3)nc(-c3ccc(C(=O)Nc4cc(C(F)(F)F)ccn4)cc3)c12 | Tyrosine-protein kinase BTK (Homo sapiens, UniProt Q06187) | nM | = | 39
Nc1nccn2c([C@@H]3CC[C@H]4COC(=O)N4C3)nc(-c3ccc(C(=O)Nc4cc(C(F)(F)F)ccn4)cc3)c12 | Tyrosine-protein kinase BTK (Homo sapiens, UniProt Q06187) | nM | = | 5.8
CC(C)Oc1cc(C(=O)Nc2cc(C(F)(F)F)ccn2)ccc1-c1nc([C@@H]2CC[C@H]3CCC(=O)N3C2)n2ccnc(N)c12 | Tyrosine-protein kinase BTK (Homo sapiens, UniProt Q06187) | nM | = | 41
C[C@@H]1OC(=O)N2C[C@H](c3nc(-c4ccc(C(=O)Nc5cc(C(F)(F)F)ccn5)cc4)c4c(N)nccn34)CC[C@@H]12 | Tyrosine-protein kinase BTK (Homo sapiens, UniProt Q06187) | nM | = | 4.9
Nc1nccn2c([C@@H]3CC[C@H]4CCC(=O)N4C3)nc(-c3ccc(C(=O)Nc4cc(C(F)(F)F)ccn4)cc3)c12 | Tyrosine-protein kinase BTK (Homo sapiens, UniProt Q06187) | nM | = | 2.5
Nc1nccn2c([C@H]3CN4C(=O)CC[C@@H]4CO3)nc(-c3ccc(C(=O)Nc4cc(C(F)(F)F)ccn4)cc3)c12 | Tyrosine-protein kinase BTK (Homo sapiens, UniProt Q06187) | nM | = | 7.2
Nc1nccn2c([C@@H]3CC[C@H]4CCC(=O)N4C3)nc(-c3ccc(C(=O)Nc4cc(C(F)(F)F)ccn4)cc3OC(F)F)c12 | Tyrosine-protein kinase BTK (Homo sapiens, UniProt Q06187) | nM | = | 20
Nc1nccn2c([C@@H]3CC[C@H]4COCC(=O)N4C3)nc(-c3ccc(C(=O)Nc4cc(C(F)(F)F)ccn4)cc3F)c12 | Tyrosine-protein kinase BTK (Homo sapiens, UniProt Q06187) | nM | = | 5.8
Nc1nccn2c([C@@H]3CC[C@H]4CCCC(=O)N4C3)nc(-c3ccc(C(=O)Nc4cc(C(F)(F)F)ccn4)cc3F)c12 | Tyrosine-protein kinase BTK (Homo sapiens, UniProt Q06187) | nM | = | 39
CN1C[C@@H]2CC[C@@H](c3nc(-c4ccc(C(=O)Nc5cc(C(F)(F)F)ccn5)cc4)c4c(N)nccn34)CN2C1=O | Tyrosine-protein kinase BTK (Homo sapiens, UniProt Q06187) | nM | = | 403
CN1CC(=O)N2C[C@H](c3nc(-c4ccc(C(=O)Nc5cc(C(F)(F)F)ccn5)cc4F)c4c(N)nccn34)CC[C@H]2C1 | Tyrosine-protein kinase BTK (Homo sapiens, UniProt Q06187) | nM | = | 16

----------
Target: Tyrosine-protein kinase BTK (Homo sapiens)
Assay: Inhibition of recombinant full length BTK (unknown origin) expressed in baculovirus infected Sf9 cells using Biotin-EQEDEPEGDYFEWLE-NH2 peptide as substrate incubated for 60 mins followed by further incubation with substrate and ATP for 120 mins by TR-FRET assay
pIC50: −log10 of the molar value.
Recorded pIC50 for the following molecules
Readout Type: pIC50

Compound Structure | Tgt | Relation Symbol | Value
Nc1nccn2c([C@@H]3CC[C@H]4COC(=O)N4C3)nc(-c3ccc(C(=O)Nc4cc(C(F)(F)F)ccn4)cc3)c12 | Tyrosine-protein kinase BTK (Homo sapiens) | = | 10.08
Nc1nccn2c([C@H]3CN4C(=O)OC[C@@H]4CO3)nc(-c3ccc(C(=O)Nc4cc(C(F)(F)F)ccn4)cc3)c12 | Tyrosine-protein kinase BTK (Homo sapiens) | = | 7.60
CC1(C)OC(=O)N2C[C@H](c3nc(-c4ccc(C(=O)Nc5cc(C(F)(F)F)ccn5)cc4)c4c(N)nccn34)CC[C@H]21 | Tyrosine-protein kinase BTK (Homo sapiens) | = | 9.92
Nc1nccn2c([C@@H]3CC[C@H]4CCC(=O)N4C3)nc(-c3ccc(C(=O)Nc4cc(C(F)(F)F)ccn4)cc3Oc3ccccc3)c12 | Tyrosine-protein kinase BTK (Homo sapiens) | = | 7.96
CN1CC(=O)N2C[C@H](c3nc(-c4ccc(C(=O)Nc5cc(C(F)(F)F)ccn5)cc4F)c4c(N)nccn34)CC[C@H]2C1 | Tyrosine-protein kinase BTK (Homo sapiens) | = | 9.59
C[C@@H]1OC(=O)N2C[C@H](c3nc(-c4ccc(C(=O)Nc5cc(C(F)(F)F)ccn5)cc4)c4c(N)nccn34)CC[C@@H]12 | Tyrosine-protein kinase BTK (Homo sapiens) | = | 9.89
Nc1nccn2c([C@@H]3CC[C@H]4CCC(=O)N4C3)nc(-c3ccc(C(=O)Nc4cc(C(F)(F)F)ccn4)cc3C(F)(F)F)c12 | Tyrosine-protein kinase BTK (Homo sapiens) | < | 6.00
Nc1nccn2c([C@@H]3CC[C@H]4COCC(=O)N4C3)nc(-c3ccc(C(=O)Nc4cc(C(F)(F)F)ccn4)cc3F)c12 | Tyrosine-protein kinase BTK (Homo sapiens) | = | 10.00
Nc1nccn2c([C@@H]3CC[C@H]4CCC(=O)N4C3)nc(-c3ccc(C(=O)Nc4cc(C(F)(F)F)ccn4)cc3OC(F)(F)F)c12 | Tyrosine-protein kinase BTK (Homo sapiens) | = | 8.00
